Run Conditions: mouse oral PK, female Balb/c, 40 mg/kg single dose, plasma
# reported Tmax; entries follow
Express your answer in h, writing the number without its unit.

Here is how some molecules turned out for Tmax.
CC(C)C[C@H](NC(=O)c1cc2ccccc2[nH]1)C(=O)N1C[C@H]2[C@@H]([C@H]1C(=O)N[C@H](C=O)C[C@@H]1CCNC1=O)C2(C)C
1
CC(C)(C)[C@H](NC(=O)C(F)(F)F)C(=O)N1C[C@H]2[C@@H]([C@H]1C(=O)N[C@H](C=O)C[C@@H]1CCNC1=O)C2(C)C
1
CC(C)(C)[C@H](NC(=O)C(F)F)C(=O)N1C[C@H]2[C@@H]([C@H]1C(=O)N[C@H](C#N)C[C@@H]1CCNC1=O)C2(C)C
1

Pending molecule:
Task: Dear colleague, I am looking for the recorded Tmax of the following molecule: `CC(C)C[C@H](NC(=O)C1CC1)C(=O)N1C[C@H]2[C@@H]([C@H]1C(=O)N[C@H](C#N)C[C@@H]1CCNC1=O)C2(C)C`
Output: 1.0
